Attribution: PubChem BioAssay AID1907

test: rat intestinal IEC-6 viability loss – cell-based, luminescence, cytotoxicity control, confirmation (AID 1907); conditions: IEC-6 rat intestinal epithelial viability, at 5 µM, stronger effect = higher value;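 also: 0% = vehicle and 100% = reference cytotoxic drug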
About 1,200 (63%) of roughly 1,900 compounds were called active. The set was probably picked from earlier hits. The list is a sample of the results.
For each record, check the reported inhibition: if it is below 50% write T, else write F.

[
  {
    "COMPOUND": "CCOc1ncccc1C(=O)NCCc1ccc(OC)cc1",
    "CAT": "T"
  },
  {
    "COMPOUND": "COc1ccc(CS(=O)/C(Cl)=C(/Cl)C(=O)Nc2ccc(OC)nc2)cc1 (stereo unspecified)",
    "CAT": "F"
  },
  {
    "COMPOUND": "CCCC1=Nc2cc(C(=O)NCc3ccco3)ccc2Sc2ccccc21",
    "CAT": "F"
  },
  {
    "COMPOUND": "Cn1nccc1C(=O)NC1CCCc2c1cnn2-c1ccc(F)cc1F (stereo unspecified)",
    "CAT": "T"
  },
  {
    "COMPOUND": "COc1cccc(C(=O)Nc2ccc(N3CCN(C(=O)c4ccco4)CC3)cc2)c1",
    "CAT": "T"
  },
  {
    "COMPOUND": "CCOc1cccc(-n2nnnc2-c2ccc(OC)cc2)c1",
    "CAT": "T"
  },
  {
    "COMPOUND": "C/C(=N\\NC(=O)c1ccccc1F)c1ccccn1",
    "CAT": "F"
  },
  {
    "COMPOUND": "Cc1cc(C)n2nc(CNS(=O)(=O)c3c(F)c(F)c(F)c(F)c3F)nc2n1",
    "CAT": "T"
  },
  {
    "COMPOUND": "CCOC(=O)/C=C/C(=O)OCC(=O)NC(c1ccccc1)c1ccccc1",
    "CAT": "T"
  },
  {
    "COMPOUND": "COc1ccc(NC(=O)/C(Cl)=C(/Cl)S(=O)Cc2ccc(C)cc2)cn1 (stereo unspecified)",
    "CAT": "F"
  },
  {
    "COMPOUND": "Cc1cccc(NS(=O)(=O)c2ccc(-c3cnc(C4CC4)o3)cc2)c1",
    "CAT": "F"
  }
]

----------
assay: rat intestinal IEC-6 viability loss – cell-based, luminescence, cytotoxicity control, confirmation (AID 1907); conditions: IEC-6 rat intestinal epithelial viability, at 5 µM;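 also: 0% = vehicle and 100% = reference cytotoxic drug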
About 1,200 (63%) of roughly 1,900 compounds were called active. No stated cut-off is given here; in the data, active means inhibition above about 22%; inactive means the rest. The set was probably picked from earlier hits. These entries were drawn from the full list.
Classes used: active, inactive

[
  {
    "COMPOUND": "COc1ccc2c(c1OC)C(=O)OC2Nc1nc(-c2ccccc2)cs1 (stereo not drawn)",
    "CAT": "active"
  },
  {
    "COMPOUND": "C[C@@H]1C[C@@H]2O[C@H]2/C=C\\C=C\\C(=O)Cc2c(Cl)c(O)cc(O)c2C(=O)O1",
    "CAT": "active"
  },
  {
    "COMPOUND": "CSc1nc(N(C)NC(=O)c2cccc(C)c2)c2ccccc2n1",
    "CAT": "active"
  },
  {
    "COMPOUND": "Cc1nn2c(NCCN(C)C)c3c(nc2c1-c1ccccc1)CCC3",
    "CAT": "inactive"
  },
  {
    "COMPOUND": "CCCOc1ccccc1C1CC(=O)Nc2cc3c(cc21)OCO3 (stereo not drawn)",
    "CAT": "active"
  },
  {
    "COMPOUND": "COc1cc(NS(=O)(=O)c2ccc3ccccc3c2)c2ncccc2c1",
    "CAT": "active"
  },
  {
    "COMPOUND": "CCOC(=O)C1=C(N)N2C(=O)C(C)SC2=C(C(=O)OCC)C1c1cc(OC)c(OC)c(OC)c1 (stereo not drawn)",
    "CAT": "inactive"
  },
  {
    "COMPOUND": "COc1cccc(C(=O)Nc2ccc(N3CCCC3)cc2)c1",
    "CAT": "active"
  },
  {
    "COMPOUND": "CC(C)(C)Nc1nc(-c2ccccn2)nc2ccccc12",
    "CAT": "inactive"
  },
  {
    "COMPOUND": "CNC[C@H](CC1CCCCC1)NC[C@H](NCCC1CCCC1)[C@H](C)O",
    "CAT": "active"
  },
  {
    "COMPOUND": "COc1ccc(Nc2oc(-c3ccccc3Cl)nc2C#N)cc1",
    "CAT": "active"
  },
  {
    "COMPOUND": "CCOC(=O)CSC1=C(C#N)C(c2sccc2C)CC(=O)N1 (stereo not drawn)",
    "CAT": "active"
  },
  {
    "COMPOUND": "O=c1cc(-c2ccccc2)[nH]c2cc(F)ccc12",
    "CAT": "active"
  },
  {
    "COMPOUND": "Cc1ccc(-c2csc(NC3OC(=O)c4ccccc43)n2)cc1 (stereo not drawn)",
    "CAT": "active"
  },
  {
    "COMPOUND": "O=C1C(=O)N(CC2COc3ccccc3O2)c2ccccc21 (stereo not drawn)",
    "CAT": "inactive"
  },
  {
    "COMPOUND": "Cc1cccc(CS(=O)(=O)c2ncc(Cl)c(C(=O)Nc3ccc(F)cc3)n2)c1",
    "CAT": "active"
  },
  {
    "COMPOUND": "CCOc1ccccc1N1CCN(C(=O)c2ccc3[nH]c(C)c(C)c3c2)CC1",
    "CAT": "active"
  },
  {
    "COMPOUND": "Cc1ccc(CS(=O)(=O)c2ncc(Cl)c(C(=O)Nc3nnc(C)s3)n2)cc1",
    "CAT": "active"
  },
  {
    "COMPOUND": "O=C(NCCOc1cccnc1)c1ccc(OC2CCN(Cc3ccccn3)CC2)cc1",
    "CAT": "active"
  },
  {
    "COMPOUND": "Oc1cccc(/C=N/Nc2ccc(Cl)nn2)c1O",
    "CAT": "inactive"
  },
  {
    "COMPOUND": "COc1ccccc1C1C2=C(COC2=O)Nc2cc3c(cc21)OCO3 (stereo not drawn)",
    "CAT": "active"
  },
  {
    "COMPOUND": "Cc1ccc(S(=O)(=O)C2(S(=O)(=O)c3ccc(C)cc3)CCCC2)cc1",
    "CAT": "active"
  },
  {
    "COMPOUND": "COc1ccc(C)cc1Nc1nc(C)nc2c1oc1ccccc12",
    "CAT": "active"
  }
]

----------
experiment: rat intestinal IEC-6 viability loss – cell-based, luminescence, cytotoxicity control, confirmation (AID 1907); settings: IEC-6 rat intestinal epithelial viability, at 5 µM, stronger effect = higher value;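 also: 0% = vehicle and 100% = reference cytotoxic drug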
The campaign covered roughly 1,900 compounds. About 1,200 (63%) were called active. So high a share suggests a set chosen from earlier hits. Only a sample is shown.
Catalogue of compounds with associated inhibition

[
  {
    "COMPOUND": "CCCCCCCCn1c2c(c(=N)c3c1CCC3)CCCC2",
    "ENDPOINT_UNIT": "%",
    "inhibition": 49.4
  },
  {
    "COMPOUND": "CC1CCCCN1S(=O)(=O)c1ccc(C(=O)Nc2nnc(-c3cccs3)o2)cc1 (stereo unspecified)",
    "ENDPOINT_UNIT": "%",
    "inhibition": 18.5
  },
  {
    "COMPOUND": "COc1ccccc1N1CCN(C(=O)c2cc(=O)c3cc(C)cc(C)c3o2)CC1",
    "ENDPOINT_UNIT": "%",
    "inhibition": 60
  },
  {
    "COMPOUND": "Cc1ccc(-n2c(SCC(=O)Nc3ncc(Cl)cc3Cl)nc3ccccc32)cc1",
    "ENDPOINT_UNIT": "%",
    "inhibition": 44.1
  },
  {
    "COMPOUND": "CCn1c(C)nc2c1C(=O)c1ccccc1C2=O",
    "ENDPOINT_UNIT": "%",
    "inhibition": 10.1
  },
  {
    "COMPOUND": "COc1ccc(CNS(=O)(=O)c2cc(-c3cc(C)no3)ccc2C(C)C)cc1",
    "ENDPOINT_UNIT": "%",
    "inhibition": 51.7
  },
  {
    "COMPOUND": "CCN1/C(=C\\c2ccc3ccccc3[n+]2CC)Sc2cc(C)ccc21",
    "ENDPOINT_UNIT": "%",
    "inhibition": 39.4
  },
  {
    "COMPOUND": "COc1ccccc1N(CC(=O)N/N=C(\\C)c1ccccc1O)S(=O)(=O)c1ccc(C)cc1",
    "ENDPOINT_UNIT": "%",
    "inhibition": 10.4
  },
  {
    "COMPOUND": "O=C(CN1C(=O)C2C3C=CC(C3)C2C1=O)Nc1nc(-c2ccccn2)cs1 (stereo unspecified)",
    "ENDPOINT_UNIT": "%",
    "inhibition": 19.4
  },
  {
    "COMPOUND": "CCN(CC)c1ccc(NC(=O)c2ccc(Cl)nc2)cc1",
    "ENDPOINT_UNIT": "%",
    "inhibition": 38
  },
  {
    "COMPOUND": "CCOc1c(Nc2cccc(Cl)c2)c(=O)c1=O",
    "ENDPOINT_UNIT": "%",
    "inhibition": -1.97
  }
]
